test system: RPMI-8226 leukemia; assay: NCI tumour cell line growth inhibition, 48 h
Rule: Yes for TGI not less than 20 µM, No for anything less.

In [3]: df
Out[3]:
                                    molecule      assayed_system  class_name
 0  O=c1c2cc(Br)ccc2nc(-c2ccccc2)n1NCC1(O)OCC(O)C(O)C1O (configuration not stated)  RPMI-8226 leukemia         Yes
 1  COc1cc(CNc2nc3cc(N)cc(N)c3nc2-c2ccccc2)cc(OC)c1OC  RPMI-8226 leukemia          No
 2  Cc1cc2c(=O)cc(-c3ccc(C(F)(F)F)cc3)oc2c(C(=O)O)c1C  RPMI-8226 leukemia         Yes
 3  CCCCCCCCCCCCOC1C(CNCC2OC3OC(C)(C)OC3C2NC(=O)Nc2ccc(C(F)(F)F)cc2)OC2OC(C)(C)OC21 (configuration not stated)  RPMI-8226 leukemia          No
 4  C=C1CC23CCC4C(C)(C(=O)O)CCCC4(C)C2CCC1C3 (configuration not stated)  RPMI-8226 leukemia         Yes
 5  O=c1oc2ccccc2cc1-c1csc(Nc2cc(Cl)cc(Cl)c2)n1  RPMI-8226 leukemia         Yes
 6    CC(C)[C@H]1CO[C@@H]2O[C@H](C)CC(=O)N21  RPMI-8226 leukemia         Yes
 7  Cc1cc(C(=O)N[C@@H](CCC(=O)O)C(=O)O)sc1CC[C@@H]1CNc2nc(N)[nH]c(=O)c2C1  RPMI-8226 leukemia         Yes
 8                      O=Nc1ccc(O)c2ncccc12  RPMI-8226 leukemia         Yes
 9  CCOC(=O)CCC(NC(=O)c1ccc(Nc2cnc3cc(C(F)(F)F)ccc3n2)cc1)C(=O)OCC (configuration not stated)  RPMI-8226 leukemia         Yes
10  O=C(c1ccccn1)c1nc(-c2ccc(Cl)c(Cl)c2)nc2ccc(Cl)cc12  RPMI-8226 leukemia         Yes
11  CC(NC1=NCCO1)c1cccs1 (configuration not stated)  RPMI-8226 leukemia         Yes
12  COc1ccc(C(=O)Nc2ccc(S(=O)(=O)NCC(=O)O)cc2)cc1  RPMI-8226 leukemia         Yes
13  N#CC(c1ccccc1)N(CCc1ccccc1)C(=O)c1ccccc1 (configuration not stated)  RPMI-8226 leukemia         Yes
14  CCCCC1C(=O)N(c2ccc(S(=O)(=O)Nc3ccccn3)cc2)N(c2ccc(O)c(C(=O)O)c2)C1=O (configuration not stated)  RPMI-8226 leukemia         Yes
15      CCOC(=O)/C(=C/c1ccccc1)C(=O)c1ccccc1  RPMI-8226 leukemia          No
16  O=C1OCC2=C1C(c1cccc(C(F)(F)F)c1)c1cc3c(cc1N2CCO)OCO3 (configuration not stated)  RPMI-8226 leukemia         Yes
17  Nc1ccc(-c2ccc(Nc3cc(S(=O)(=O)O)c(N)c4c3C(=O)c3ccccc3C4=O)cc2)c(S(=O)(=O)O)c1  RPMI-8226 leukemia         Yes
18  COc1ccc2c(O)c(/C=C3\N=Nc4ncccc43)oc2c1C[C@H]1CCNC[C@H]1F  RPMI-8226 leukemia          No
19  CC(O)CCNC(=O)Nc1c(C(F)(F)F)cc(-c2ccccc2)[nH]c1=O (configuration not stated)  RPMI-8226 leukemia         Yes
20   O=C1N[C@H]2C(=O)c3c(Cl)sc(Cl)c3[C@H]2O1  RPMI-8226 leukemia         Yes
21      O=C(CSc1nnc(Cc2ccccc2)o1)Nc1ccccc1Cl  RPMI-8226 leukemia         Yes
22  CC(C)(C)OC(=O)N1CC(Cn2cc(C(F)(F)F)c3c(Cl)ncnc32)C1  RPMI-8226 leukemia          No
23  O=S(Nc1ccccc1)c1ccc(-c2ccccc2)cc1 (configuration not stated)  RPMI-8226 leukemia         Yes
24  O=C(C[C@@]1(O)C(=O)Nc2c(Cl)ccc(Cl)c21)c1ccc(C2CC2)cc1  RPMI-8226 leukemia         Yes
25  Cc1cc(Cl)ccc1NC(=O)C(=O)Cc1ccc([N+](=O)[O-])c([N+](=O)[O-])c1CC(=O)C(=O)Nc1ccc(Cl)cc1C  RPMI-8226 leukemia         Yes
26         Cc1ccc(/C=N/Nc2cc(C)c3ccccc3n2)s1  RPMI-8226 leukemia         Yes
27  C/C1=N\NC(=O)c2ccccc2C(=O)N/N=C(\C)c2cccc1n2.O=[N+]([O-])[O-].[Zn+2]  RPMI-8226 leukemia         Yes
28  COc1cc2c(cc1OC)C(=O)Cc1ccc3c(c1CNCC2)OCO3  RPMI-8226 leukemia         Yes
29                    O=C1CCc2nc3ncccc3cc2C1  RPMI-8226 leukemia         Yes
30  CN(C)c1ccc(/C=C/c2ccnc3ccc4ccccc4c23)cc1  RPMI-8226 leukemia         Yes
31  NC1=NN(c2ccccc2)C(=O)C1/C(=N\NC(=O)c1cc2ccccc2cc1O)C(=O)Nc1nc([N+](=O)[O-])cs1 (configuration not stated)  RPMI-8226 leukemia         Yes
32      C/C(=N/NC(=S)N(C)CCc1ccccn1)c1cnccn1  RPMI-8226 leukemia         Yes
33  O=C1c2ccccc2C(=O)c2c(NC(=O)C(Cl)CCl)cccc21 (configuration not stated)  RPMI-8226 leukemia          No
34  OC12CC3c4ccccc4NC3C3Oc4cccc5c4C31CCN(CC1CC1)C2C5 (configuration not stated)  RPMI-8226 leukemia         Yes
35  C=C1C(=O)OC2/C=C(\C)C(=O)CC3OC(C)(C)OC3(C)CC(OC(=O)/C(C)=C/C)C12 (configuration not stated)  RPMI-8226 leukemia         Yes
